Reference source: FireProtDB (doi:10.1126/science.aai7825)

Entries and their measured Tm follow.
- Measurement Context: Escherichia coli (strain K12); pH 7.5; Thermal; Intensity; HEPES 20mM; transition: 2; whole UniProt chain shown
The number alone won't do; follow it with the unit.

# Protein, Recorded Endpoint, Result Value
records = [
    ("tRNA pseudouridine synthase D wild type, Q57261 (protein) MIEFDNLTYLHGKPQGTGLLKANPEDFVVVEDLGFEPDGEGEHILVRILKNGCNTRFVADALAKFLKIHAREVSFAGQKDKHAVTEQWLCARVPGKEMPDLSAFQLEGCQVLEYARHKRKLRLGALKGNAFTLVLREVSNRDDVEQRLIDICVKGVPNYFGAQRFGIGGSNLQGAQRWAQTNTPVRDRNKRSFWLSAARSALFNQIVAERLKKADVNQVVDGDALQLAGRGSWFVATTEELAELQRRVNDKELMITAALPGSGEWGTQREALAFEQAAVAAETELQALLVREKVEAARRAMLLYPQQLSWNWWDDVTVEIRFWLPAGSFATSVVRELINTTGDYAHIAE", "Tm", "43.8 °C"),
]

Problem: Entry dTDP-glucose 4,6-dehydratase 1 wild type, P37759 (protein) MKILVTGGAGFIGSAVVRHIINNTQDSVVNVDKLTYAGNRESLADVSDSERYVFEHADICDAPAMARIFAQHQPDAVMHLAAESHVDRSITGPAAFIETNIVGTYVLLEAARNYWSALDSDKKNSFRFHHISTDEVYGDLPHPDEVNNTEELPLFTETTAYAPSSPYSASKASSDHLVRAWKRTYGLPTIVTNCSNNYGPYHFPEKLIPLVILNALEGKALPIYGKGDQIRDWLYVEDHARALYTVVTEGKAGETYNIGGHNEKKNIDVVLTICDLLDEIVPKEKSYREQITYVADRPGHDRRYAIDAEKIGRALGWKPQETFESGIRKTVEWYLSNTKWVDNVKSGAYQSWIEQNYEGRQ has what Tm?
Solution: 44.3 °C
